Data provenance is ChEMBL document CHEMBL1133988.

biological target: Histone deacetylase; experiment: Inhibitory activity against histone deacetylase (HDAC) enzyme derived from partially purified extracts of human HeLa cells using [3H]11 as radioligand
measurement kind: IC50 (nM)
# unit: nM | format: bare number

IC50 of CCC(=O)CCCCC[C@@H]1NC(=O)[C@H]2CCCCN2C(=O)[C@H]([C@@H](C)CC)NC(=O)[C@H](c2cnc3ccccc3c2N2CCCCC2)NC1=O on Histone deacetylase?
13

IC50 of CCC(=O)CCCCC[C@@H]1NC(=O)[C@H]2CCCCN2C(=O)[C@H]([C@@H](C)CC)NC(=O)[C@H](CCOc2ccccc2)NC1=O on Histone deacetylase?
34

IC50 of CCC(=O)CCCCC[C@@H]1NC(=O)[C@H]2CCCCN2C(=O)[C@H]([C@@H](C)CC)NC(=O)[C@H](Cc2c[nH]c3ccccc23)NC1=O on Histone deacetylase?
2

IC50 of CCC(=O)CCCCC[C@@H]1NC(=O)[C@H]2CCCCN2C(=O)[C@H]([C@@H](C)CC)NC(=O)[C@H](Cc2cn(CCN)c3ccccc23)NC1=O on Histone deacetylase?
1.3

IC50 of CCC(=O)CCCCC[C@@H]1NC(=O)[C@H]2CCCCN2C(=O)[C@H]([C@@H](C)CC)NC(=O)[C@H](Cc2c(-c3ccccc3)[nH]c3ccccc23)NC1=O on Histone deacetylase?
4

IC50 of CCC(=O)CCCCC[C@@H]1NC(=O)[C@H]2CCCCN2C(=O)[C@H]([C@@H](C)CC)NC(=O)[C@H](CC(=O)c2ccccc2[N+](=O)[O-])NC1=O on Histone deacetylase?
91

IC50 of CCC(=O)CCCCC[C@@H]1NC(=O)[C@H]2CCCCN2C(=O)[C@H]([C@@H](C)CC)NC(=O)[C@H](Cc2c(-c3cc(OC)cc(OC)c3)[nH]c3ccccc23)NC1=O on Histone deacetylase?
0.2

###

test: Tested in vitro by mammalian antiproliferative functional assay using human HeLa cells or foreskin fibroblasts
measurement kind: AP50

Find the recorded AP50 belonging to CCC(=O)CCCCC[C@@H]1NC(=O)[C@H]2CCCCN2C(=O)[C@H]([C@@H](C)CC)NC(=O)[C@H](Cc2cn(OC)c3ccccc23)NC1=O [APICIDIN] and report it.
89 ng/mL

Find the recorded AP50 belonging to CCC(=O)CCCCC[C@@H]1NC(=O)[C@H]2CCCCN2C(=O)[C@H]([C@@H](C)CC)NC(=O)[C@@H](c2cnc3ccccc3c2O)NC1=O and report it.
>10000 ng/mL

Find the recorded AP50 belonging to CCC(=O)CCCCC[C@@H]1NC(=O)[C@H]2CCCCN2C(=O)[C@H]([C@@H](C)CC)NC(=O)[C@H](CC(=O)C(C)(C)C)NC1=O and report it.
>10000 ng/mL

Find the recorded AP50 belonging to CCC(=O)CCCCC[C@@H]1NC(=O)[C@H]2CCCCN2C(=O)[C@H]([C@@H](C)CC)NC(=O)[C@H](CCOc2ccccc2)NC1=O and report it.
1450 ng/mL

Find the recorded AP50 belonging to CCC(=O)CCCCC[C@@H]1NC(=O)[C@H]2CCCCN2C(=O)[C@H]([C@@H](C)CC)NC(=O)[C@H](CC(=O)Cc2ccccc2)NC1=O and report it.
>10000 ng/mL

Find the recorded AP50 belonging to CCCCCCCCCCC(=O)C[C@@H]1NC(=O)[C@H](CCCCCC(=O)CC)NC(=O)[C@H]2CCCCN2C(=O)[C@H]([C@@H](C)CC)NC1=O and report it.
>10000 ng/mL

Find the recorded AP50 belonging to CCC(=O)CCCCC[C@@H]1NC(=O)[C@H]2CCCCN2C(=O)[C@H]([C@@H](C)CC)NC(=O)[C@H](c2cnc3ccccc3c2Cl)NC1=O and report it.
10000 ng/mL

Find the recorded AP50 belonging to CCC(=O)CCCCC[C@@H]1NC(=O)[C@H]2CCCCN2C(=O)[C@H]([C@@H](C)CC)NC(=O)[C@@H](C(=O)Cc2ccccc2)NC1=O and report it.
>10000 ng/mL

Find the recorded AP50 belonging to CCC(=O)CCCCC[C@@H]1NC(=O)[C@H]2CCCCN2C(=O)[C@H]([C@@H](C)CC)NC(=O)[C@H](c2cn(OC)c3ccccc3c2=O)NC1=O and report it.
10000 ng/mL
